Tested on: NCI-H441 cells
RUN_DESCRIPTION: 3D cell proliferation assay (CellTiter Glo-3D) in NCI-H441 cells
Type: cell-based
CONDITION_SET: Homo sapiens, NCI-H441, 120 h, NCI-H441, human lung cancer cell strain, KRAS G12V mutation; 3D culture, 2% FBS, 5 days; read-out: H441 AP IC50
Measured IC50, listed per entry.
Quick reminder: number only, in nM, skip the unit.

Entry under test: CCn1cc2c(c1-c1cc(C#CCN3CCC(C#N)CC3)cnc1[C@H](C)OC)CC(C)(C)COC(=O)[C@@H]1CCCN(N1)C(=O)[C@@H](NC(=O)[C@H]1[C@@H]3COC[C@@H]31)Cc1nc(cs1)/C=C/2 (atropisomer, axis not shown; (Ra)) . Its IC50 was 0.14

Entry under test: CCn1cc2c(c1-c1cc(C#CCN3CCC(C#N)(CN)CC3)cnc1[C@H](C)OC)CC(C)(C)COC(=O)[C@@H]1CCCN(N1)C(=O)[C@@H](NC(=O)[C@H]1[C@@H]3COC[C@@H]31)Cc1nc(co1)/C=C/2 (atropisomer, axis not shown; (Ra)) . Its IC50 was 0.15
